- Test system: HIV-1 (strain IIIB)
- method.description: Antiviral activity assay in MT4 cells (propidium iodide based)
- Type: cell-based
- condition.details: Human immunodeficiency virus 1, IIIB; wild type HIV-1 virus, MT4 cells; read-out: Wildtype virus - IC50
assay.readout: IC50

> print(dat)
                    structure.smiles.string      reported
1  CC(C)CN(C[C@@H](O)[C@H](Cc1ccc(OCCCC(N)=O)cc1)NC(=O)O[C@H]1CO[C@H]2OCC[C@H]21)S(=O)(=O)c1ccc2c(c1)OCO2  10 to 100 nM
2  CC(C)CN(C[C@@H](O)[C@H](Cc1ccc(OC(=O)N(C)C)cc1)NC(=O)O[C@H]1CO[C@H]2OCC[C@H]21)S(=O)(=O)c1ccc2c(c1)OCO2    1 to 10 nM
3  CC(C)CN(C[C@@H](O)[C@H](Cc1ccc(OCCCCO)cc1)NC(=O)O[C@H]1CO[C@H]2OCC[C@H]21)S(=O)(=O)c1ccc2c(c1)OCO2    1 to 10 nM

# IC50 of CC(C)CN(C[C@@H](O)[C@H](Cc1ccc(OCc2cccc(C#N)c2)cc1)NC(=O)O[C@H]1CO[C@H]2OCC[C@H]21)S(=O)(=O)c1ccc2c(c1)OC(F)(F)O2 = 10 to 100 nM

# IC50 of CC(C)CN(C[C@@H](O)[C@H](Cc1ccc(OCc2noc(C(C)(C)C)n2)cc1)NC(=O)O[C@H]1CO[C@H]2OCC[C@H]21)S(=O)(=O)c1ccc2c(c1)OCO2 = < 1 nM

Sourced from patent US8455497B2
